Tested on: UACC-257 melanoma
Assay: NCI tumour cell line growth inhibition, 48 h
Decide using TGI: a value greater than or equal to 30 µM is Condition met, a smaller one is Condition not met.

>  <compound>
CC1=C(C(=O)OCCO[N+](=O)[O-])C(c2cccc([N+](=O)[O-])c2)C(C(=O)OC(C)C)=C(C)N1 (stereo not drawn)

>  <targetUnderTest>
UACC-257 melanoma

>  <assignedLabel>
Condition not met

$$$$
>  <compound>
C=CCC1(O)CC(n2cc(C)c(=O)[nH]c2=O)OC1CO[Si](C)(C)C(C)(C)C (stereo not drawn)

>  <targetUnderTest>
UACC-257 melanoma

>  <assignedLabel>
Condition met

$$$$
>  <compound>
O=C1N(C2CCCCC2)C(=O)N1C1CCCCC1

>  <targetUnderTest>
UACC-257 melanoma

>  <assignedLabel>
Condition not met

$$$$
>  <compound>
CC(C)c1ccc(C(C)C(=O)N(CC2=C(C(C)c3ccccn3)c3ccccc3C2)C(C)C)cc1 (stereo not drawn)

>  <targetUnderTest>
UACC-257 melanoma

>  <assignedLabel>
Condition met

$$$$
>  <compound>
CC(=O)OC(C)C(=O)C1c2cccc(O)c2C(=O)c2c(O)cc(C)cc21 (stereo not drawn)

>  <targetUnderTest>
UACC-257 melanoma

>  <assignedLabel>
Condition not met

$$$$
>  <compound>
CSC1=C(C#N)C(=S)N=C(N)C1C(=O)Nc1ccc(C)cc1 (stereo not drawn)

>  <targetUnderTest>
UACC-257 melanoma

>  <assignedLabel>
Condition met

$$$$
>  <compound>
O=C1OCN(c2ccccc2)C12CCN(Cc1ccccc1)CC2

>  <targetUnderTest>
UACC-257 melanoma

>  <assignedLabel>
Condition met

$$$$
>  <compound>
NC(CCCCCCCCCCP(=O)(O)O)C(=O)O (stereo not drawn)

>  <targetUnderTest>
UACC-257 melanoma

>  <assignedLabel>
Condition met

$$$$
>  <compound>
COc1ccc(-c2cc(-c3ccc(Nc4nc(Nc5ccccc5)nc(Nc5ccc(Cl)cc5)n4)cc3)nc(N)c2C#N)cc1

>  <targetUnderTest>
UACC-257 melanoma

>  <assignedLabel>
Condition not met

$$$$
>  <compound>
CC(=O)N1[C@H](C(=O)O)CS[C@H]1c1ccncc1

>  <targetUnderTest>
UACC-257 melanoma

>  <assignedLabel>
Condition met

$$$$
>  <compound>
O=C1NC(N/N=C/C(O)C(O)C(O)C(O)CO)=N/C1=C\c1ccco1 (stereo not drawn)

>  <targetUnderTest>
UACC-257 melanoma

>  <assignedLabel>
Condition met

$$$$
>  <compound>
CN(C)c1ccc(-c2cc(-c3ccc(Nc4nc(Nc5ccc(Cl)cc5)nc(Nc5ccc(Cl)cc5)n4)cc3)no2)cc1

>  <targetUnderTest>
UACC-257 melanoma

>  <assignedLabel>
Condition met

$$$$
>  <compound>
CCN(CC)c1ccc2cc(C(N)=O)c(=N)oc2c1

>  <targetUnderTest>
UACC-257 melanoma

>  <assignedLabel>
Condition met

$$$$
>  <compound>
COc1ccc2c(c1)C(=O)/C(=C/c1ccc(OCC(=O)Nc3nccs3)cc1)O2

>  <targetUnderTest>
UACC-257 melanoma

>  <assignedLabel>
Condition met

$$$$
>  <compound>
C1=CC2(C=CC13O[C@H](C1CCCCC1)[C@@H](C1CCCCC1)O3)O[C@H](C1CCCCC1)[C@@H](C1CCCCC1)O2

>  <targetUnderTest>
UACC-257 melanoma

>  <assignedLabel>
Condition met

$$$$
>  <compound>
c1ccc(C(C2=Nc3cccc4cccc(c34)N2)c2ccccc2)cc1

>  <targetUnderTest>
UACC-257 melanoma

>  <assignedLabel>
Condition met

$$$$
>  <compound>
O=[N+]([O-])C(=C(Cl)Cl)C(Cl)=C(Cl)Cl

>  <targetUnderTest>
UACC-257 melanoma

>  <assignedLabel>
Condition not met

$$$$
>  <compound>
O=C(O)CCC(NC(=O)c1ccc(OCc2nc3cc(C(F)(F)F)ccc3nc2-c2ccccc2)cc1)C(=O)O (stereo not drawn)

>  <targetUnderTest>
UACC-257 melanoma

>  <assignedLabel>
Condition met

$$$$
>  <compound>
CC1=C(C(=O)Nc2ccc(F)c(Cl)c2)C(c2ccc(Cl)cc2)NC(=O)N1 (stereo not drawn)

>  <targetUnderTest>
UACC-257 melanoma

>  <assignedLabel>
Condition met

$$$$
>  <compound>
COc1ccc(C2=CSc3cc(Cl)c(C)cc3S(=O)(=O)N2C(C)=O)cc1

>  <targetUnderTest>
UACC-257 melanoma

>  <assignedLabel>
Condition met

$$$$
>  <compound>
O=C1c2ccccc2C(=O)c2sc(Nc3cccc(Cl)c3)nc21

>  <targetUnderTest>
UACC-257 melanoma

>  <assignedLabel>
Condition not met

$$$$
>  <compound>
Cc1ccc(N=N/C(=N/NC(=O)c2cc(Cl)ccc2O)c2ccc(N(CCC#N)CCC#N)cc2C)cc1

>  <targetUnderTest>
UACC-257 melanoma

>  <assignedLabel>
Condition met

$$$$
>  <compound>
N#Cc1cccc2c1Sc1ccccc1N2

>  <targetUnderTest>
UACC-257 melanoma

>  <assignedLabel>
Condition met

$$$$
>  <compound>
O=c1c2cccnc2n2n1Cc1ccccc1C2

>  <targetUnderTest>
UACC-257 melanoma

>  <assignedLabel>
Condition met

$$$$
>  <compound>
COc1cc2c(cc1OC)[C@@H]1[C@H](C#N)C(=O)C(C)(C)N1CC2

>  <targetUnderTest>
UACC-257 melanoma

>  <assignedLabel>
Condition met

$$$$
>  <compound>
CN(C)CCCN1c2ccc([N+](=O)[O-])cc2CCc2cccc([N+](=O)[O-])c21

>  <targetUnderTest>
UACC-257 melanoma

>  <assignedLabel>
Condition not met

$$$$
>  <compound>
O=[N+]([O-])c1cnc(Sc2ccncn2)s1

>  <targetUnderTest>
UACC-257 melanoma

>  <assignedLabel>
Condition not met

$$$$
>  <compound>
O=C(Nc1ccc(F)cc1F)c1cc(I)ccc1O

>  <targetUnderTest>
UACC-257 melanoma

>  <assignedLabel>
Condition not met

$$$$
>  <compound>
Cc1ccc(Cc2n[nH]c(=O)[nH]2)cc1

>  <targetUnderTest>
UACC-257 melanoma

>  <assignedLabel>
Condition met

$$$$
>  <compound>
CCOC(=O)COc1cccc2c1C(=O)CCO2

>  <targetUnderTest>
UACC-257 melanoma

>  <assignedLabel>
Condition met

$$$$
>  <compound>
NC1CCC(Nc2nc(NCc3ccc(-c4ccco4)nc3)c3ncn(C4CCCC4)c3n2)CC1 (stereo not drawn)

>  <targetUnderTest>
UACC-257 melanoma

>  <assignedLabel>
Condition not met

$$$$
>  <compound>
CCN(CC)CC(C(=O)Nc1c(C)cccc1C)/C(C)=N\NC(=O)C[N+](C)(C)C (stereo not drawn)

>  <targetUnderTest>
UACC-257 melanoma

>  <assignedLabel>
Condition met

$$$$
>  <compound>
O=c1ccn([C@@H]2C[C@H]2CO)c(=O)[nH]1

>  <targetUnderTest>
UACC-257 melanoma

>  <assignedLabel>
Condition met

$$$$
>  <compound>
O=C(/C=C/c1ccccc1Cl)c1ccc(Cl)c(Cl)c1

>  <targetUnderTest>
UACC-257 melanoma

>  <assignedLabel>
Condition met

$$$$
>  <compound>
COC(=O)NC(Nc1ccccn1)(C(F)(F)F)C(F)(F)F

>  <targetUnderTest>
UACC-257 melanoma

>  <assignedLabel>
Condition met

$$$$
>  <compound>
C1=CC2C=CC(C=C1)P2c1ccccc1 (stereo not drawn)

>  <targetUnderTest>
UACC-257 melanoma

>  <assignedLabel>
Condition met

$$$$
>  <compound>
Cc1ccc2c(c1)[nH]c(=S)n2C=C(C(N)=O)C(N)=O

>  <targetUnderTest>
UACC-257 melanoma

>  <assignedLabel>
Condition met

$$$$
>  <compound>
CCOC(=O)c1c(SC(=O)c2ccc(C(C)(C)C)cc2)n(-c2ccccc2)c(=S)n(-c2ccccc2)c1=O

>  <targetUnderTest>
UACC-257 melanoma

>  <assignedLabel>
Condition met

$$$$
>  <compound>
Cn1c2ccc([N+](=O)[O-])cc2c(=O)n1Cc1ccccc1F

>  <targetUnderTest>
UACC-257 melanoma

>  <assignedLabel>
Condition met

$$$$
>  <compound>
COc1cc(C(=O)/C=C/c2sc(Cl)nc2Cl)cc(OC)c1OC

>  <targetUnderTest>
UACC-257 melanoma

>  <assignedLabel>
Condition not met

$$$$
>  <compound>
CN(CC(=O)O)S(=O)(=O)c1ccc2ccccc2c1

>  <targetUnderTest>
UACC-257 melanoma

>  <assignedLabel>
Condition met

$$$$
>  <compound>
COc1cc(/C=C/c2cc(/C=C/c3ccc(O)c(OC)c3)n(C(=O)Nc3ccc(F)cc3)n2)ccc1O

>  <targetUnderTest>
UACC-257 melanoma

>  <assignedLabel>
Condition not met

$$$$
>  <compound>
Cc1cc2nc(C(Cl)Cl)nc(-c3ccc(Cl)cc3)n2n1

>  <targetUnderTest>
UACC-257 melanoma

>  <assignedLabel>
Condition not met

$$$$
